biological target: SiaP (SiaP-His6) (Haemophilus influenzae, UniProt P44542, R170K/F193W); conditions: 50 mM Tris/HCl, pH 8.0; 0.5 μM protein
Sequence (P44542 24-329 R170K/F193W): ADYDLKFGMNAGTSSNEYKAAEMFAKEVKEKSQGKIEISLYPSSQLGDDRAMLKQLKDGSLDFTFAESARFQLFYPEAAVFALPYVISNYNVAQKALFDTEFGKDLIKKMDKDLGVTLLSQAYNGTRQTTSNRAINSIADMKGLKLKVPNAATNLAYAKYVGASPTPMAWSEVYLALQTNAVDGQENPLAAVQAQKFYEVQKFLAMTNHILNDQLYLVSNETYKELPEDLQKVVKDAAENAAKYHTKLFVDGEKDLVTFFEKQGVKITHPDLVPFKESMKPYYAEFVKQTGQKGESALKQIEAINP
TEST READOUT: Kd (mM)
Give just the numeric value; mM need not be written.

Requested read-out: Kd. Entry: CC(=O)N[C@H]1[C@H]([C@H](O)[C@H](O)CO)OC(O)(C(=O)O)C[C@@H]1O (stereo partly shown) [Neu5Ac]
38.7

---

molecular target: SiaP (SiaP-His6) (Haemophilus influenzae, UniProt P44542)
Sequence (P44542 24-329): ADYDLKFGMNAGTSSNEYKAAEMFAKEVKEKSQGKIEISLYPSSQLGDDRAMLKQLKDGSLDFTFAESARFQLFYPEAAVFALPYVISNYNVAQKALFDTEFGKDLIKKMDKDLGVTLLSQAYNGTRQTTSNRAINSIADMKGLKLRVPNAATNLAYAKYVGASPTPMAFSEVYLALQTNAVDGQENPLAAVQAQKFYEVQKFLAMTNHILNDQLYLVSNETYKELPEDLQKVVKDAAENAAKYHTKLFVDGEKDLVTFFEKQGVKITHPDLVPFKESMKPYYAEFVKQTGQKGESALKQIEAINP
TEST READOUT: pKd
On this scale, pKd is minus log10 of a concentration expressed in M (mol/L).

Request body: readout pKd, system SiaP (SiaP-His6) (Haemophilus influenzae, UniProt P44542), query CC(=O)N[C@H]1[C@H]([C@H](O)[C@H](O)CO)OC(O)(C(=O)O)C[C@@H]1O (stereo partly shown) . Return the value.
6.85
